Origin of measurements: the Immune Epitope Database (IEDB)

biological target: HLA-A*01:01; experiment: IEDB peptide-MHC binding, purified MHC/competitive/radioactivity; bounds were set here for any values at or beyond the usual limits of such assays; conditions: source organism: Clostridium perfringens
Attribute measured: IC50
Answer format reminder: number followed by unit.

Query: Could you share which IC50 value was measured for STTAGPNEY ?
Reply: 785 nM

====

target: HLA-A*01:01; assay: IEDB peptide-MHC binding, purified MHC/competitive/radioactivity; bounds were set here for any values at or beyond the usual limits of such assays; conditions: source organism: Clostridium botulinum
For each record, write down the corresponding log10 IC50.
Hey, these are logged values: log10 of IC50, nM being the unit before logging.

Sequence entry: FLDQWWTEY
Attribute measured: log10 IC50
Recorded measurement: 0.04
//
Sequence entry: TSPYELSLY
Attribute measured: log10 IC50
Recorded measurement: 2.41
//
Sequence entry: LTYKYNQFY
Attribute measured: log10 IC50
Recorded measurement: 1.08
//
Sequence entry: FVEDPNGKY
Attribute measured: log10 IC50
Recorded measurement: 2.83
//
Sequence entry: CSNDKSLVY
Attribute measured: log10 IC50
Recorded measurement: 2.06
//
Sequence entry: TSIPFLHEY
Attribute measured: log10 IC50
Recorded measurement: 2.79

Could you report log10 IC50 for every entry in the following list?
1. IIEDQYNRY
2. ISDESYRVY

Reply:
2.25
2.26

====

molecular target: HLA-A*01:01; assay: IEDB peptide-MHC binding, purified MHC/competitive/radioactivity; filed as Kd, often an IC50 or EC50 that approximates it; bounds were set here for any values at or beyond the usual limits of such assays; conditions: source organism: Human immunodeficiency virus type 1 (NEW YORK-5 ISOLATE)
Attribute measured: Kd (µM)
Give bare numbers, in µM.

Query: Could you share which Kd value was measured for ETPGIRYQY ?
Reply: 2.15

====

target: HLA-A*01:01; assay: IEDB peptide-MHC binding, purified MHC/competitive/radioactivity; filed as Kd, often an IC50 or EC50 that approximates it; bounds were set here for any values at or beyond the usual limits of such assays; details: source organism: Clostridium botulinum
For each record, write down the corresponding Kd.
Answers are plain numbers, in µM.

Example entries and their recorded answers appear below.
Sequence entry: ITYFKKIYY
Unit info: µM
Recorded measurement: 2.33

Sequence entry: GMQNIYIKY
Unit info: µM
Recorded measurement: 2.47

As a next step, examine the sequence that follows.
Query: Could you share which Kd value was measured for KSKSIFFEY ?
Reply: 7.06

====

biological target: HLA-A*01:01; experiment: IEDB peptide-MHC binding, purified MHC/competitive/radioactivity; filed as Kd, often an IC50 or EC50 that approximates it; bounds were set here for any values at or beyond the usual limits of such assays; settings: source organism: Neisseria gonorrhoeae
Attribute measured: Kd

Sequence entry: FDEKNQDKY
Subject of test: HLA-A*01:01
Kd: ≥ 50 µM
--
Sequence entry: QRESTAMAY
Subject of test: HLA-A*01:01
Kd: ≥ 50 µM
--
Sequence entry: KTQNGKKQY
Subject of test: HLA-A*01:01
Kd: ≥ 50 µM
--
Sequence entry: GKDLYYKNY
Subject of test: HLA-A*01:01
Kd: ≥ 50 µM
--
Sequence entry: RPDLSLRSY
Subject of test: HLA-A*01:01
Kd: ≥ 50 µM

Could you report Kd for every entry in the following list?
1. VREFPEDQY
2. RSYNLKLSY
3. EKEVVPDFY

Reply:
≥ 50 µM
6.22 µM
≥ 50 µM

Could you report Kd for every entry in the following list?
1. YDEDDYSYY
2. TTRPGLAGY
3. KSWQEWNIY
4. LSQDALTNY
5. DPEMADVTY
6. GTYDYWAGY
7. QNDYDEDDY

Reply:
1. ≥ 50 µM
2. ≥ 35 µM
3. 17.9 µM
4. 2.06 µM
5. ≥ 50 µM
6. 1.18 µM
7. 14 µM

Query: Could you share which Kd value was measured for IRDMTEKQY ?
Reply: ≥ 50 µM
